Property: TGI; scope: individual molecules
# System: OVCAR-3 ovarian
# protocol: NCI tumour cell line growth inhibition, 48 h

molecule | measurementUnit | resultQualifier | TGI
COc1cc(/C=C/C(=O)c2cccc(Nc3nc(Nc4ccccc4)nc(Nc4ccccc4)n3)c2)cc(OC)c1OC | µM | = | 56
CCC[CH2][Sn]1([CH2]CCC)[O]C(=O)c2cccnc2[O]1 | µM | = | 8.16
COC1CC(OS(=O)(=O)c2ccc([N+](=O)[O-])cc2)C(OC(=O)c2ccccc2)C(C)O1 (stereo not given) | µM | > | 100
COc1ccc(-c2nc(-c3nc4ccc(OC)cc4[nH]3)c3ccccn23)cc1 | µM | = | 62.1
CN[C@@H](C)C(=O)N[C@H](C(=O)N1CCC[C@H]1C(=O)Nc1snnc1-c1ccccc1)C1CCCCC1 | µM | > | 100

---

# System: ACHN renal
# protocol: NCI tumour cell line growth inhibition, 48 h

compound | GI50
Cc1nn2c(/C=C3\C(=O)Nc4ccc(Cl)cc43)c(C)nc2s1 | 72.9 µM
CC(C)(C)n1cc(-c2ccnc(NCCCNS(=O)(=O)c3ccc(C(F)(F)F)cc3)c2)c(-c2cccc(O)c2)n1 | 1.88 µM
O=[N+]([O-])O.[Cu+2].[NH-]CC[NH-].[NH-]CC[NH-] | > 10 µM
COc1cc([N+](=O)[O-])c(OC)cc1-c1nc2sc(Cl)cn2c1/C(N)=N/C(=N)N | > 56.9 µM
C=C1C(=O)O[C@H]2[C@H]1CC/C(COC(=O)NCc1ccc(Cn3c(=O)sn(CCCl)c3=O)cc1)=C\CC[C@@]1(C)O[C@@H]21 | 1.54 µM
O=C([CH-]C(=O)c1ccccc1)c1ccccc1.O=C([CH-]C(=O)c1ccccc1)c1ccccc1.[La+3].[OH-].[OH3+] | 19.6 µM
CC(C)(C)c1ccc(Oc2nccc(-c3c(-c4ccc(F)cc4)ncn3C3CCNCC3)n2)cc1 | 3.49 µM
COc1ccc(C(=O)OC2C(OC3C(O)COC(O[C@H]4C[C@H]5[C@@H]6CC=C7C[C@@H](O)CC[C@]7(C)[C@H]6CC[C@]5(C)[C@H]4[C@H](C)C(=O)CCC(C)C)C3OC(N)=O)OCC(O)C2O)cc1 (stereo partly specified) | 0.471 µM
COc1cc(CSc2nc3ccc(C)cc3c(=O)n2-c2ccccc2)cc(OC)c1OC | 4.78 µM
CCC(C)(CC(C)(C)C(=O)NCC(=O)NC(Cc1ccccc1)C(=O)NC(Cc1ccccc1)C(=O)NCC(=O)NC1CC(OC2CC(O)(C(=O)CO)Cc3c(O)c4c(c(O)c32)C(=O)c2c(OC)cccc2C4=O)OC(C)C1O)C(=O)NCC(C)O (stereo unspecified) | 73.9 µg/mL
CCC[CH2][Sn]1([CH2]CCC)[O]C(=O)c2cccnc2[O]1 | 2.14 µM
CCCCCCCCCCCCCCCCCCOc1ccccc1CC(=O)OCC[N+]1(C)CCCCC1 | 5.01 µM
COC(=O)c1nc(-c2ccccc2)oc1S(=O)(=O)Cc1ccccc1 | 1.77 µM
O=C1Nc2ccccc2/C1=C/C(=O)c1coc2c1C(=O)c1ccccc1C2=O | > 100 µM
C#Cc1c(F)ccc2cc(O)cc(-c3ncc4c(N5CC6CCC(C5)N6)nc(OC[C@@]56CCCN5C[C@H](F)C6)nc4c3F)c12 | > 39.4 µM
COc1ccc(-c2c[nH]c(C(=O)O)c2-c2cc(OC)c(OC)c(OC)c2)cc1 | 9.74 µM
